Cited source for all entries: the RNAGym collection of RNA variant scans (doi:10.1002/anie.201605470)

B1: Osa-1-4 twister ribozyme (parent)
chain: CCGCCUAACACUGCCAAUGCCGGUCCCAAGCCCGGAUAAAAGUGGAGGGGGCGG

variants of: B1; test: self-cleavage, relative activity (ratio to wild type); higher = more cleavage; co-transcriptional
metricName: self-cleavage

>>> df
    mutationdescriptor  valuemeasured
 0           A41C U24A           0.13
 1            A29C A8G           0.03
 2           G34A U24A           0.18
 3            A8U U12A            0.1
 4           A10U G53A           0.04
 5           C21G G51U           0.06
 6           A40C G45A           0.04
 7                U12C           0.66
 8           A38C C21U           0.92
 9            A7C U18G           0.08
10           G30C G49C           0.02
11           C11U G13A           0.05
12           A29C A38U           0.03
13           C31A U43C           0.03
14           C25U U24C           0.08
15                G19U           0.57
16           A40U U24C           0.09
17            C9U G49A           0.06
18            A8C U24A           0.03
19           G47A U24G           0.02
20            A7G G35A           0.31
21            A39G A7U           0.08
22           A29C G19A           0.04
